FYI, the data here is from paper PMC10786891.

# assayed target: T1, EsCas13d, nuclease-dead (Eubacterium siraeum, UniProt B0MS50, R295A;H300A;R849A;H854A)
# T1 sequence: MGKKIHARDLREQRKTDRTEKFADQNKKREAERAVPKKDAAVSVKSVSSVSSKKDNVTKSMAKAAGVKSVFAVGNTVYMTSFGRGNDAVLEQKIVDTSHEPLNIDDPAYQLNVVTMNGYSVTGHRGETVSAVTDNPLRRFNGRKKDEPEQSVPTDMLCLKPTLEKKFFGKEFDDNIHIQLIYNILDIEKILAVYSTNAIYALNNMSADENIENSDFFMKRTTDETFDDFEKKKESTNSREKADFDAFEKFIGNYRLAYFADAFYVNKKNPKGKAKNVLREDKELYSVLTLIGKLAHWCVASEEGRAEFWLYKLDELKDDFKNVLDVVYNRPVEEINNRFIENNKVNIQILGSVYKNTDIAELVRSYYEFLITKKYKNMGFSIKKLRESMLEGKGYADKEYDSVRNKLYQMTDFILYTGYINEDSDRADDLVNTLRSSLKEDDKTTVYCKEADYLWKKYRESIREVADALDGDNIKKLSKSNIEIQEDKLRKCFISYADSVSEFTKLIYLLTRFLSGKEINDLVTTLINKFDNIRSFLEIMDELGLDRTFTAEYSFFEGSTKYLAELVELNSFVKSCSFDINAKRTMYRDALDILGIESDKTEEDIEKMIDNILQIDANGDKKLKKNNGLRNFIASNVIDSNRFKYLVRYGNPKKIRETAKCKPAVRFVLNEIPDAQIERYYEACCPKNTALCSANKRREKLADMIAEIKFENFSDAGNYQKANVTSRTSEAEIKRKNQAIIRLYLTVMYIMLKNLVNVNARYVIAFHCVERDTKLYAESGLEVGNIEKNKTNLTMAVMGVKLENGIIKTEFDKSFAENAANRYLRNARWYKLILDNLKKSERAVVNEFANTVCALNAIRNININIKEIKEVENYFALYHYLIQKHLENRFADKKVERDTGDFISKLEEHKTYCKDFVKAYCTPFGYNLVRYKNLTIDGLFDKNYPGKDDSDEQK
# test name: crRNA (strand 1, pre-loaded); Mg2+; 40 mM Tris-HCl pH 7.5, 150 mM NaCl, 6 mM MgCl2, 1 mM DTT, 0.1% Tween-20, 0.2 mg/ml BSA; 25 C; 10 min per concentration, then washed
# run conditions: tags: His6-TwinStrep-SUMO cleaved; N-terminal SNAP kept (SNAP-Surface 488); label: 3' end held by stalled T7 RNA polymerase
quantity measured: pKd
In simple prose, pKd is minus the logarithm base ten of a concentration in moles per litre.

Data request, read-out pKd, for target 3 del2,del8 (mixed) RNA 1: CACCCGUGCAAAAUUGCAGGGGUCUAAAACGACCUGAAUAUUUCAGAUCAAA RNA 2: GGGAAUGGAUCCACAUCUACGAAUUCGUUUUUGAUCUGAAAUAUCAGGCUGCAGAUCGGAAGAGCACACGU
7.33

Now turn to the next binder.
Which pKd is listed for target 1 A1U,G12C (mixed) RNA 1: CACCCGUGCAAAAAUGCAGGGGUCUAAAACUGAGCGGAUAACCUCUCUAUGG RNA 2: GGGAAUGGAUCCACAUCUACGAAUUCGUACCAUAGAGAGCUUAUCCGCUCUCCGAGAUCGGAAGAGCACACGU ?
7.76
